Hello, the source for this data is PubChem BioAssay (NCI), in case you need it.

# Test system: A498 renal
# measurement description: NCI-60 one-dose screen, 48 h
# applied conditions: 10 µM unless noted
This is part of a sample that, as a whole, favours compounds with a hit. Of some 83,000 tested, about 20% had one in any assay. Active and inactive are the calls of the source. How the source made its calls: active means growth percent below 10; inactive means the rest.
Hi there, use one of these labels in your reply, thanks! y (active), n (inactive)

CC(=O)c1nn(-c2ccccc2)/c(=N\N=C\c2coc3ccc(F)cc3c2=O)s1: n

Input: Per the records of this test, what outcome belongs to O=C(Nc1ccc2ncnc(Nc3ccc(F)c(Cl)c3)c2c1)c1cccs1 ?
Output: n

Input: // repeat for Cc1cc(C)c2c(n1)sc1c(Nc3ccc(O)cc3)ncnc12 and report
Output: n

Input: Let us now turn to N#Cc1c(N)c(C(=O)c2ccc3c(c2)OCCO3)n2c1CCCC2
Output: n

Input: How about this compound: Cc1n(Cc2ccc3ccccc3n2)cc[n+]1Cc1ccc2ccccc2c1
Output: y

Input: Likewise for COc1ccc(/C=C2\N=C(c3cccnc3)N(c3ccccc3)NC2=O)cc1 ?
Output: n

Input: Another compound to look at: O=C(/C=C/c1ccccc1)n1c(-c2ccccc2)nc2ccccc21
Output: n

Input: Can you handle COc1ccc2cc(-c3nc(C)c(C(C)=O)c(-c4ccc(C)cc4)n3)ccc2c1 next?
Output: n

###

# Test system: U251 CNS
# measurement description: NCI-60 one-dose screen, 48 h
# applied conditions: 10 µM unless noted
The panel holds about 83,000 compounds, 20% with a hit somewhere; the sample as a whole holds those more often. The source made the active and inactive calls. Rule for the calls: active = growth percent below 10; inactive = the rest.
Choose one outcome from this list and give only that: yes = active, no = inactive

Known results for compounds:
CC(C)NCCCCCNc1cc(O)cc2cccnc12: no
Oc1c(C(c2ccc(F)cc2)N2CCCCC2)ccc2cncnc12 (centres undefined): yes
CN(C)CCOc1nc2c3ccncc3cc(-c3cccc(Cl)c3)c2c2cnccc12: no

Input: Called result for CN(C)c1ccc(/C=N/Nc2nnc3n2N=C(c2ccc(Cl)cc2)CS3)cc1
Output: no

Input: Quick one: COc1ccc2c(c1)N(CCO)C1=C(C(=O)OC1)C2c1cccc(Br)c1 (centres undefined)
Output: no

Input: Please answer likewise for CC[C@H](Nc1nc(N)nc(C2CC2)c1C#N)c1nc2cccc(NCc3ccc(C(=O)NO)cc3)c2c(=O)n1-c1ccccc1
Output: yes

Input: Queued: CCN(CC)Cc1cc(Nc2nc(NC3CCC(N(C)C)CC3)c3ccccc3n2)ccc1OC (centres undefined)
Output: no

Input: Could you do the same for COc1ccccc1NC(=O)OCC12COCN1COC2 , please?
Output: no

Input: Item: COc1ccc(/C=c2\c(=O)n(-c3ccccc3)c3nn4c(n23)=NNC42CCCCC2)cc1
Output: no

Input: Also O=C(Nc1ccc(Oc2ccc(Nc3nc4ccccc4s3)cc2)cc1)Nc1ccc(Cl)c(C(F)(F)F)c1 ?
Output: yes

Input: Now consider CS(=O)(=O)Nc1cc(-c2cc3ncc(C#N)c(Nc4ccc(Oc5ccccc5)c(Cl)c4)c3s2)cnc1Cl and answer again.
Output: no

Input: And for CCCc1n(Cc2ccc3ccccc3n2)cc[n+]1Cc1ccc2ccccc2c1 ?
Output: no

Input: Next compound up: CC1=NC(c2ccc(Cl)cc2)C2=C(N1)/C(=C/c1ccc(Cl)cc1)CCC2 (centres undefined)
Output: no

Input: Now give it for O=c1c2sc3ccccc3c2nnn1-c1ccc(F)c(Cl)c1 too.
Output: no

Input: // query: CN1CCN(Cc2ccc(NC(=O)c3cncc(C#Cc4ncc5ccccn45)c3)cc2C(F)(F)F)CC1
Output: yes

Input: Here is the next compound: O=C(CCc1nc2sc3c(c2c(=O)[nH]1)CCC3)NCc1cn(-c2ccccc2)nc1-c1ccccc1
Output: no
